Consider the following compounds; for each one, report its ACTIVITY (CARNOSINE UNIT) 3 h.
assay: Carbonyl-quenching activity towards HNE in vitro (residual HNE by reverse-phase chromatography); type: biochemical; conditions: 3 h incubation; HNE 50 μM, compound 1 mM, phosphate buffer 10 mM, pH 7.4, 37° C.
Give bare numbers, in CARNOSINE UNIT.

Example compounds with recorded ACTIVITY (CARNOSINE UNIT) 3 h:
# compound, unit-abbrev, ACTIVITY (CARNOSINE UNIT) 3 h
records = [
    ("CC(C)(CN)C(=O)N[C@@H](Cc1c[nH]cn1)C(=O)O [FLM-04-ACI]", "CARNOSINE UNIT", 1.51),
    ("NCC(F)(F)C(=O)N[C@@H](Cc1c[nH]cn1)C(=O)O [FLM-07-ACI]", "CARNOSINE UNIT", 0.69),
    ("CC(C)(CCN)C(=O)N[C@@H](Cc1c[nH]cn1)C(=O)O [FLM-13-ACI]", "CARNOSINE UNIT", 0.48),
]

Please turn your attention to the following entry.
Quote ACTIVITY (CARNOSINE UNIT) 3 h reported for CC(C)(N)CC(=O)N[C@H](CO)Cc1c[nH]cn1 [FLM-02-OLO] please.
0.24
